The measured values listed here are drawn from ChEMBL document CHEMBL1821585.

# maps each entry to its Ratio Ki
Experiment: Selectivity ratio of Ki for CB1 receptor to Ki for CB2 receptor

chem-smiles: CCCCCC(C)(C)c1cc(OC)c2c(c1)OC(C)(C)[C@@H]1CCC(C)=C[C@@H]21
Ratio Ki: 170
//
chem-smiles: CCCCCc1cc2cc(C(=O)NCCc3ccc(F)cc3)c(=O)n(C)c2c(O)c1OC
Ratio Ki: 20100
//
chem-smiles: CCCCCOc1c(OC)ccc2cc(C(=O)NCCN3CCOCC3)c(=O)n(C)c12
Ratio Ki: 11000
//
chem-smiles: CCCCOc1c(OC)ccc2cc(C(=O)O)c(=O)[nH]c12
Ratio Ki: 28300
//
chem-smiles: COc1ccc2c(c1)c(CCN1CCOCC1)c(C)n2C(=O)c1cccc(Cl)c1Cl
Ratio Ki: 146

* * *

# maps each entry to its Ratio Ki
Species: Homo sapiens
Experiment: Selectivity ratio of Ki for human CB1 receptor to Ki for human CB2 receptor
outcome-measure: Ratio Ki

compound: COc1ccc2cc(C(=O)NCc3ccc(F)cc3)c(=O)[nH]c2c1OC
outcome-measure: Ratio Ki
recorded-measurement: > 1
--
compound: COc1ccc2cc(C(=O)NCCF)c(=O)[nH]c2c1OC
outcome-measure: Ratio Ki
recorded-measurement: > 1
--
compound: CCCCOc1c(OC)ccc2cc(C(=O)NCCc3cn(CCF)nn3)c(=O)[nH]c12
outcome-measure: Ratio Ki
recorded-measurement: > 4
--
compound: COc1ccc2cc(C(=O)NCC(F)c3ccccc3)c(=O)[nH]c2c1OC (stereo unspecified)
outcome-measure: Ratio Ki
recorded-measurement: > 454
--
compound: CCCCOc1c(OC)ccc2cc(C(=O)NCCc3ccc(F)cc3)c(=O)[nH]c12
outcome-measure: Ratio Ki
recorded-measurement: > 4170
--
compound: CCCCOc1c(OC)ccc2cc(C(=O)NCc3cn(CCF)nn3)c(=O)[nH]c12
outcome-measure: Ratio Ki
recorded-measurement: > 16
--
compound: CCCCOc1c(OC)ccc2cc(C(=O)NCc3ccc(F)cc3)c(=O)[nH]c12
outcome-measure: Ratio Ki
recorded-measurement: > 3570
--
compound: CCCCOc1c(OC)ccc2cc(C(=O)NCCF)c(=O)[nH]c12
outcome-measure: Ratio Ki
recorded-measurement: > 20.5
--
compound: CCCCOc1c(OC)ccc2cc(C(=O)NCC(F)c3ccccc3)c(=O)[nH]c12 (stereo unspecified)
outcome-measure: Ratio Ki
recorded-measurement: > 12500
--
compound: CCCCOc1c(OC)c([N+](=O)[O-])cc2cc(C(=O)NCCc3ccc(F)cc3)c(=O)[nH]c12
outcome-measure: Ratio Ki
recorded-measurement: > 7140
--
compound: CCCCOc1c(OC)ccc2cc(C(=O)NCCCF)c(=O)[nH]c12
outcome-measure: Ratio Ki
recorded-measurement: > 172

* * *

Target: Cannabinoid receptor 2 (Homo sapiens, UniProt P34972)
Sequence (P34972 whole entry): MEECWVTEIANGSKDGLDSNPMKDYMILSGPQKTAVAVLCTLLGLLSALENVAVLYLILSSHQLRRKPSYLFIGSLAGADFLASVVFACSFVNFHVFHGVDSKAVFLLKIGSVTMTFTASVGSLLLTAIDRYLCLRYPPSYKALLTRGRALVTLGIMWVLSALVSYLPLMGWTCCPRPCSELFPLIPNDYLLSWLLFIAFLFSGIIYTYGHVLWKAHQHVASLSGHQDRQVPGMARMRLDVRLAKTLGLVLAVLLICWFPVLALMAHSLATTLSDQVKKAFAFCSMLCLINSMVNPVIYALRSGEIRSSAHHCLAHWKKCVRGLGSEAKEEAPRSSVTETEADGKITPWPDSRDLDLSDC
Assay: Displacement of [3H]CP-55940 from human CB2 receptor expressed in human U87 cells after 1 hr by scintillation counting
Assay type: cell-based, U-87MG ATCC
pKi: −log10 of the molar value.
# maps each entry to its pKi
outcome-measure: pKi

compound: CCCCOc1c(OC)ccc2cc(C(=O)NCc3cn(CCF)nn3)c(=O)[nH]c12
assay-target: Cannabinoid receptor 2 (Homo sapiens, UniProt P34972)
censor-symbol: =
recorded-measurement: 6.21
--
compound: COc1ccc2cc(C(=O)NCc3ccc(F)cc3)c(=O)[nH]c2c1OC
assay-target: Cannabinoid receptor 2 (Homo sapiens, UniProt P34972)
censor-symbol: <
recorded-measurement: 5.00
--
compound: CCCCOc1c(OC)ccc2cc(C(=O)NCc3ccc(F)cc3)c(=O)[nH]c12
assay-target: Cannabinoid receptor 2 (Homo sapiens, UniProt P34972)
censor-symbol: =
recorded-measurement: 8.55
--
compound: CCCCOc1c(OC)c([N+](=O)[O-])cc2cc(C(=O)NCCc3ccc(F)cc3)c(=O)[nH]c12
assay-target: Cannabinoid receptor 2 (Homo sapiens, UniProt P34972)
censor-symbol: =
recorded-measurement: 8.85
--
compound: CCCCOc1c(OC)ccc2cc(C(=O)NCCc3ccc(F)cc3)c(=O)[nH]c12
assay-target: Cannabinoid receptor 2 (Homo sapiens, UniProt P34972)
censor-symbol: =
recorded-measurement: 8.62
--
compound: COc1ccc2cc(C(=O)NCC(F)c3ccccc3)c(=O)[nH]c2c1OC (configuration not stated)
assay-target: Cannabinoid receptor 2 (Homo sapiens, UniProt P34972)
censor-symbol: =
recorded-measurement: 7.66
--
compound: COc1ccc2cc(C(=O)NCCc3ccc(F)cc3)c(=O)[nH]c2c1OC
assay-target: Cannabinoid receptor 2 (Homo sapiens, UniProt P34972)
censor-symbol: =
recorded-measurement: 8.30
--
compound: CCCCOc1c(OC)ccc2cc(C(=O)NCC(F)c3ccccc3)c(=O)[nH]c12 (configuration not stated)
assay-target: Cannabinoid receptor 2 (Homo sapiens, UniProt P34972)
censor-symbol: =
recorded-measurement: 9.10
--
compound: CCCCOc1c(OC)ccc2cc(C(=O)NCCCF)c(=O)[nH]c12
assay-target: Cannabinoid receptor 2 (Homo sapiens, UniProt P34972)
censor-symbol: =
recorded-measurement: 7.24
--
compound: COc1ccc2cc(C(=O)NCCF)c(=O)[nH]c2c1OC
assay-target: Cannabinoid receptor 2 (Homo sapiens, UniProt P34972)
censor-symbol: <
recorded-measurement: 5.00
--
compound: CCCCOc1c(OC)ccc2cc(C(=O)NCCc3cn(CCF)nn3)c(=O)[nH]c12
assay-target: Cannabinoid receptor 2 (Homo sapiens, UniProt P34972)
censor-symbol: =
recorded-measurement: 5.62
--
compound: CCCCOc1c(OC)ccc2cc(C(=O)NCCF)c(=O)[nH]c12
assay-target: Cannabinoid receptor 2 (Homo sapiens, UniProt P34972)
censor-symbol: =
recorded-measurement: 6.31
